Below are compounds with their Ki as measured on human mu opioid receptor (Homo sapiens).
Sequence (P35372 whole entry): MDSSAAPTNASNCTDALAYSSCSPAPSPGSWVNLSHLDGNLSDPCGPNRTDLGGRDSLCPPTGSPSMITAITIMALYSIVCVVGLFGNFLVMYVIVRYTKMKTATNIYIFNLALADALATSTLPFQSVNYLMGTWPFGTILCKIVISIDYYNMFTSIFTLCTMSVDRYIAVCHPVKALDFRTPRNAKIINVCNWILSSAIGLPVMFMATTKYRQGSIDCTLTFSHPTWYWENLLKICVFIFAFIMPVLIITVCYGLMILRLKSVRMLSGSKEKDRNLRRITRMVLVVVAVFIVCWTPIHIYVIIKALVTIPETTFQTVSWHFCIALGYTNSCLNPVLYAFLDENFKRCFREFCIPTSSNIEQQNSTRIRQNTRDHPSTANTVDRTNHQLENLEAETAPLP
Remember to follow the number with its unit.

In [3]: df
Out[3]:
                                   compound  quantity_measured  recorded_result
0  C[C@@H]1CN(C(c2cccc(O)c2)c2cccc(C(=O)N3CCCN(CCCCC(=O)O)CC3)c2)[C@@H](C)CN1Cc1cccc(F)c1 (stereo partly shown)                 Ki          34.8 nM

Qu. Note down Ki recorded for CCOC(=O)CCCCN1CCCN(C(=O)c2cccc(C(c3cccc(O)c3)N3C[C@@H](C)N(Cc4ccccc4)C[C@@H]3C)c2)CC1 (stereo partly shown)
Ans. 6.3 nM

Qu. Find the measured Ki of "C=CCN1C[C@H](C)N([C@@H](c2cccc(O)c2)c2cccc(C(=O)N3CCN(CCCC(=O)OCC)CC3)c2)C[C@H]1C" and report it.
Ans. 1.95 nM

Qu. Quickly give me recorded Ki for C[C@@H]1CN(C(c2cccc(O)c2)c2cccc(C(=O)N3CCCN(CCCCCC(=O)O)CC3)c2)[C@@H](C)CN1CC1CC1 (stereo partly shown)
Ans. 20.3 nM

Qu. Output measured Ki for this item: "C=CCN1C[C@H](C)N([C@@H](c2cccc(O)c2)c2cccc(C(=O)N3CCC(=CC(=O)O)CC3)c2)C[C@H]1C"
Ans. 7.4 nM

Qu. // Input: C=CCN1C[C@H](C)N(C(c2cccc(O)c2)c2cccc(C(=O)N3CCCN(Cc4cccc(C(=O)O)c4)CC3)c2)C[C@H]1C (stereo partly shown) . Output its Ki only.
Ans. 5.5 nM

Qu. State its Ki: C=CCN1C[C@H](C)N(C(c2cccc(O)c2)c2cccc(C(=O)N3CCCN(CCCCCC(=O)OCC)CC3)c2)C[C@H]1C (stereo partly shown)
Ans. 21.3 nM

Qu. Quote Ki reported for C[C@@H]1CN(C(c2cccc(O)c2)c2cccc(C(=O)N3CCCN(CCCCCC(=O)O)CC3)c2)[C@@H](C)CN1Cc1ccccc1 (stereo partly shown) please.
Ans. 3.9 nM

Qu. Report measured Ki; entry is "CCOC(=O)CCCCN1CCN(C(=O)c2cccc([C@H](c3cccc(O)c3)N3C[C@@H](C)N(Cc4cccc(F)c4)C[C@@H]3C)c2)CC1"
Ans. 21.3 nM

Qu. Find the measured Ki of C=CCN1C[C@H](C)N(C(c2cccc(O)c2)c2cccc(C(=O)N3CCCN(CCCCCC(=O)O)CC3)c2)C[C@H]1C (stereo partly shown) and report it.
Ans. 89.9 nM

Qu. Quickly give me recorded Ki for "C=CCN1C[C@H](C)N([C@@H](c2cccc(O)c2)c2cccc(C(=O)N3CCC(C(=O)OCC)CC3)c2)C[C@H]1C"
Ans. 0.54 nM

Qu. Return reported Ki. Input compound: "CCOC(=O)CCN1CCCN(C(=O)c2cccc([C@H](c3cccc(O)c3)N3C[C@@H](C)N(Cc4cccc(F)c4)C[C@@H]3C)c2)CC1"
Ans. 4.8 nM

Qu. Look up Ki of CCOC(=O)CCCN1CCCN(C(=O)c2cccc(C(c3cccc(O)c3)N3C[C@@H](C)N(Cc4cccc(F)c4)C[C@@H]3C)c2)CC1 (stereo partly shown) and report it.
Ans. 2.3 nM

###

- MEASURED ON: δ opioid receptor (Rattus norvegicus)
- Construct: tissue Pel-Freeze Biological Inc. (Rogers, Ark.)
- Sequence (P33533 whole entry): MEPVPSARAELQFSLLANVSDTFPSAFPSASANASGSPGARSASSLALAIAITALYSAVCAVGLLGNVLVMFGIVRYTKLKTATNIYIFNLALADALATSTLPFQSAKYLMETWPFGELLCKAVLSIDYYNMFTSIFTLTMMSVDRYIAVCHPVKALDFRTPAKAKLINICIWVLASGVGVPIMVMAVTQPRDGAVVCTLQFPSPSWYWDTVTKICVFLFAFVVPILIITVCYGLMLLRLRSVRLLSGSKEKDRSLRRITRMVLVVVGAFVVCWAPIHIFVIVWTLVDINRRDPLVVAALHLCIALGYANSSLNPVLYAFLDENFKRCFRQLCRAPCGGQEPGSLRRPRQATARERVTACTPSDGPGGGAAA
- ASSAY SUMMARY: radioligand binding, δ opioid receptor, rat brain membranes
- PARTICULARS: cell marked (rat), tritium-labeled Deltorphin II
QUANTITY MEASURED: Ki (nM)
Write down the numeric answer in nM and omit the unit.

>>> print(df.to_string())
                                   compound  quantity_measured  recorded_result
0  C=CCN1C[C@H](C)N(C(c2cccc(O)c2)c2cccc(C(=O)N3CCCN(C)CC3)c2)C[C@H]1C (stereo partly shown)                 Ki             5.45
1  C=CCN1C[C@H](C)N([C@@H](c2cccc(O)c2)c2cccc(C(=O)N3CCCN(CCCCC(=O)OCC)CC3)c2)C[C@H]1C                 Ki              2.9
2  C=CCN1C[C@H](C)N([C@@H](c2cccc(O)c2)c2cccc(C(=O)N3CCCN(CCCC(=O)OCC)CC3)c2)C[C@H]1C                 Ki             1.66

Below: the item to evaluate.
Qu. Entry C=CCN1C[C@H](C)N(C(c2cccc(O)c2)c2cccc(C(=O)N3CCCN(CC(=O)OCC)CC3)c2)C[C@H]1C (stereo partly shown) needs its Ki filled in; supply it.
Ans. 1.35

###

- System: seizure-like convulsions in mice
- ASSAY SUMMARY: mouse seizure-like convulsions
- Format: in vivo
- PARTICULARS: 10 mg/kg IV
- Protocol: Mouse Seizure-Like Convulsions and antinociception: The central (CNS) effects of the compound were tested with central delta receptor mediated seizure-like convulsions and central mu opioid receptor mediated antinociceptive effects in mice. […] They were then observed for seizure-like convulsions for one hour following the treatment. […] Catalepsy was determined by placing the animal's front paws on a horizontal bar held 2-3 inches from the cage floor. […]
QUANTITY MEASURED: Seiz. (% 10 mg/kg IV)
Quick note: give the figure in % 10 mg/kg IV, leave out the unit.

                                   compound  quantity_measured           unit  recorded_result
0  CCOC(=O)CN1CCCN(C(=O)c2cccc(C(c3cccc(O)c3)N3C[C@@H](C)N(Cc4ccccc4)C[C@@H]3C)c2)CC1 (stereo partly drawn)              Seiz.  % 10 mg/kg IV               60
1  CCOC(=O)C1CCN(C(=O)c2cccc([C@H](c3cccc(O)c3)N3C[C@@H](C)N(Cc4cccc(F)c4)C[C@@H]3C)c2)CC1 [Example 124]              Seiz.  % 10 mg/kg IV               10
2  C=CCN1C[C@H](C)N([C@@H](c2cccc(O)c2)c2cccc(C(=O)N(C)CC(=O)OCC)c2)C[C@H]1C [Example 151]              Seiz.  % 10 mg/kg IV              100
3  C=CCN1C[C@H](C)N(C(c2cccc(O)c2)c2cccc(C(=O)N3CCCN(CC(=O)OCC)CC3)c2)C[C@H]1C (stereo partly drawn)              Seiz.  % 10 mg/kg IV               25

Qu. Give the measured Seiz. for CCOC(=O)CCCN1CCCN(C(=O)c2cccc(C(c3cccc(O)c3)N3C[C@@H](C)N(Cc4ccccc4)C[C@@H]3C)c2)CC1 (stereo partly drawn)
Ans. 30

Qu. Identify measured Seiz. associated with CCOC(=O)CCCCN1CCN(C(=O)c2cccc([C@H](c3cccc(O)c3)N3C[C@@H](C)N(Cc4ccccc4)C[C@@H]3C)c2)CC1 [Example 86]
Ans. 60

Qu. Consider the compound C[C@@H]1CN([C@@H](c2cccc(O)c2)c2cccc(C(=O)N3CCN(CCCCC(=O)O)CC3)c2)[C@@H](C)CN1Cc1cccc(F)c1 [Example 88] . State its measured Seiz..
Ans. 0

Qu. Using the record for C=CCN1C[C@H](C)N(C(c2cccc(O)c2)c2cccc(C(=O)N3CCCN(Cc4ccccc4C(=O)O)CC3)c2)C[C@H]1C (stereo partly drawn) , state its measured Seiz..
Ans. 40

Qu. Assign Seiz. to the following record: C[C@@H]1CN([C@@H](c2cccc(O)c2)c2cccc(C(=O)N3CCN(CCCC(=O)O)CC3)c2)[C@@H](C)CN1CC1CC1 [Example 78]
Ans. 0

Qu. For the compound C[C@@H]1CN(C(c2cccc(O)c2)c2cccc(C(=O)N3CCCN(CCCC(=O)O)CC3)c2)[C@@H](C)CN1Cc1ccccc1 (stereo partly drawn) , report Seiz..
Ans. 0

Qu. Assign Seiz. to the following record: "C=CCN1C[C@H](C)N([C@@H](c2cccc(O)c2)c2cccc(C(=O)N3CCCN(CCCC(=O)OCC)CC3)c2)C[C@H]1C"
Ans. 0

Qu. Consider the compound C[C@@H]1CN([C@@H](c2cccc(O)c2)c2cccc(C(=O)N3CCC(C(=O)O)CC3)c2)[C@@H](C)CN1Cc1cccc(F)c1 [Example 125] and give its recorded Seiz..
Ans. 0

###

- MEASURED ON: human delta receptor (Homo sapiens, UniProt P41143)
- Construct: 6110549
- Sequence (P41143 whole entry): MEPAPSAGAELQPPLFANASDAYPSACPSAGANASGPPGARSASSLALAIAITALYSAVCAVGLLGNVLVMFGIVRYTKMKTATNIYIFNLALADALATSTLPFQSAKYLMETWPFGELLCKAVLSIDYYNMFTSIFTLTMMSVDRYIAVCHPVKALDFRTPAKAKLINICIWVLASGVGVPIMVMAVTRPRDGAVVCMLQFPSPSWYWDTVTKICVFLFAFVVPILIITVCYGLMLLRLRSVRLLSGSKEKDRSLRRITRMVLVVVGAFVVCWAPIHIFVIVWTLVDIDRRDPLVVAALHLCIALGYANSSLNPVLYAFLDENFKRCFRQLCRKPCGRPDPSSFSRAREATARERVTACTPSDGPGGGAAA
- ASSAY SUMMARY: radioligand binding, human delta receptor, HEK-293 cell membranes
- PARTICULARS: cell not marked (rat), species not given, read-out: δ
pKi: −log10 of the molar value.
t means recorded pKi is 8 or above; f means it is below 8.

In [3]: df
Out[3]:
                                   compound                               measured_on  class_name
0  C=CCN1C[C@H](C)N([C@@H](c2cccc(O)c2)c2cccc(C(=O)N(C)CC(=O)O)c2)C[C@H]1C  human delta receptor (Homo sapiens, UniProt P41143)           t
1  CCOC(=O)C1CCN(C(=O)c2cccc([C@H](c3cccc(O)c3)N3C[C@@H](C)N(CC4CC4)C[C@@H]3C)c2)CC1  human delta receptor (Homo sapiens, UniProt P41143)           t
2  C=CCN1C[C@H](C)N([C@@H](c2cccc(O)c2)c2cccc(C(=O)N3CCC(NCCCC(=O)O)CC3)c2)C[C@H]1C  human delta receptor (Homo sapiens, UniProt P41143)           t
3  C=CCN1C[C@H](C)N([C@@H](c2cccc(O)c2)c2cccc(C(=O)N3CCN(CC(=O)OCC)CC3)c2)C[C@H]1C  human delta receptor (Homo sapiens, UniProt P41143)           t
4  C[C@@H]1CN(C(c2cccc(O)c2)c2cccc(C(=O)N3CCCN(CCCCCCC(=O)O)CC3)c2)[C@@H](C)CN1Cc1cccc(F)c1 (stereo partly shown)  human delta receptor (Homo sapiens, UniProt P41143)           f

Qu. Please indicate if the recorded pKi for C[C@@H]1CN(C(c2cccc(O)c2)c2cccc(C(=O)N3CCCN(CCCCC(=O)O)CC3)c2)[C@@H](C)CN1Cc1ccccc1 (stereo partly shown) meets or exceeds 8.
Ans. f

Qu. API: above_or_equal(metric=pKi, cutoff=8) for item "C=CCN1C[C@H](C)N([C@@H](c2cccc(O)c2)c2cccc(C(=O)N3CCN(CC(=O)O)CC3)c2)C[C@H]1C"
Ans. t

Qu. Threshold query (pKi >= 8) on "C=CCN1C[C@H](C)N([C@@H](c2cccc(O)c2)c2cccc(C(=O)N3CCN(Cc4cccc5c4ccn5CC(=O)O)CC3)c2)C[C@H]1C"
Ans. t

Qu. Could you please find out whether CCOC(=O)CCCCN1CCCN(C(=O)c2cccc(C(c3cccc(O)c3)N3C[C@@H](C)N(CC4CC4)C[C@@H]3C)c2)CC1 (stereo partly shown) has pKi that meets 8 or exceeds it?
Ans. f

Qu. Is it the case that C[C@@H]1CN(C(c2cccc(O)c2)c2cccc(C(=O)N3CCCN(CCCCC(=O)O)CC3)c2)[C@@H](C)CN1CC1CC1 (stereo partly shown) has pKi reaching or exceeding 8?
Ans. f
